Reported cytotoxicity at 10 µM values for a set of compounds
# Measurement Notes: Toxicity liver stage against HepG2, at 10uM
# Assay type: cell-based
# Design: test concentration 10 uM, cell line HepG2-A16-CD81EGFP
# Test Conditions: human, HepG2-A16-CD81EGFP cells; read-out: INHIBITION
Answer format: value, then unit.

O=C(c1cnn(-c2ccccc2F)c1)N1CCN(CCO)CC1 = -8.18%
CCOCCC(=O)N1CCCC(c2ncc[nH]2)C1 (configuration not stated) = -9.43%
Cc1cc2nc(-c3cn(C4CCNCC4)nn3)[nH]c2cc1C = -8.1%

Query string: Entry under review: Cc1ccc(N2CCc3sc(C(=O)N4CCOCC4)cc32)nn1 . Reported cytotoxicity at 10 µM?
Result string: -0.142%

Query string: Dear colleague, I am looking for the recorded cytotoxicity at 10 µM of the following compound: CNc1nc(CNC(=O)Nc2cccc(C)c2Cl)cs1
Result string: -9.04%

Query string: Report cytotoxicity at 10 µM for COc1ccc(C(C)NCc2ccc(OC)c(OC)c2OC)cc1F (configuration not stated) please.
Result string: 55.9%

Query string: So what's the measured cytotoxicity at 10 µM for this one? CC(C)CN1CCC2(CC1)C(=O)Nc1ccc(C(=O)NC(C)C)cc12
Result string: -13.9%

Query string: For the compound shown here, Cc1ccc(CN2Cc3c(C(=O)N4CCCC4)nn(C)c3C2)s1 , give the reported cytotoxicity at 10 µM.
Result string: -0.704%

Query string: Look up cytotoxicity at 10 µM: COc1ccc(S(=O)(=O)Nc2cnc(N(C)C)nc2)cc1
Result string: -4.45%

Query string: Endpoint output: cytotoxicity at 10 µM of CCOc1ccc(C(=O)CC(SC2CCCCC2)C(=O)O)cc1 (configuration not stated) . Value?
Result string: 6.73%
